Attribution: patent US20120316071A1

molecular target: T1, rHuman ErbB2/Fc Chimera, CF (R&D Systems Cat#1129-ER) (human, UniProt P04626 23-652); assay: ECL multispot (MSD), antigen spotted, Fab in solution;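 also: purified Fab incubated 1 h at 20 °C on antigen-spotted wells, bound Fab detected via TAG detection antibody, ECL compared with each well's blank, ratio of 4 or above scored as hit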
T1 construct: Bought recombinant Fc chimera; also called human epidermal growth factor 2 receptor; Fc part of the bought chimera not given
Attribute: ECL signal
In your answer, state the number alone without any accompanying words.

BINDER: Fab VH1-46_IGHD6-6*01_IGHJ1*01 S102A/S103P/S104F/H111F (APFF) & L6_IGKJ1*01 S28R (Fab, V domains shown, Fab; VH cloned into Plasmid A (CH1, His6 and Flag tags) and VL into Plasmid C (kappa CL); also called APFF / S28R) VH: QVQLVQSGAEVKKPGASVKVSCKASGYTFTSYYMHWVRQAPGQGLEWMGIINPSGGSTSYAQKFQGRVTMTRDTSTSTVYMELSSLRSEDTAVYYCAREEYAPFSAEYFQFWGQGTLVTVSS VL: EIVLTQSPATLSLSPGERATLSCRASQRVSSYLAWYQQKPGQAPRLLIYDASNRATGIPARFSGSGSGTDFTLTISSLEPEDFAVYYCQQRSNWPPWTFGQGTKVEIKR
ECL signal: 318
--
BINDER: Fab VH1-46_IGHD6-6*01_IGHJ1*01 S102A/S103P/S104F/H111F (APFF) & L6_IGKJ1*01 S30L (Fab, V domains shown, Fab; VH cloned into Plasmid A (CH1, His6 and Flag tags) and VL into Plasmid C (kappa CL); also called APFF / S30L) VH: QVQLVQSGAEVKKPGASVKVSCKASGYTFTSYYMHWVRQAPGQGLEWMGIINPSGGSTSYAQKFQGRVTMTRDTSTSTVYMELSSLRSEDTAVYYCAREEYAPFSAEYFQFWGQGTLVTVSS VL: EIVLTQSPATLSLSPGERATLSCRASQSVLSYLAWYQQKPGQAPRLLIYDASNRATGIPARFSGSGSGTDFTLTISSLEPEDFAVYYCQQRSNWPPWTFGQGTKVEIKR
ECL signal: 270
--
BINDER: Fab VH1-46_IGHD6-6*01_IGHJ1*01 S102A/S103P/S104F/H111F (APFF) & L6_IGKJ1*01 S28N (Fab, V domains shown, Fab; VH cloned into Plasmid A (CH1, His6 and Flag tags) and VL into Plasmid C (kappa CL); also called APFF / S28N) VH: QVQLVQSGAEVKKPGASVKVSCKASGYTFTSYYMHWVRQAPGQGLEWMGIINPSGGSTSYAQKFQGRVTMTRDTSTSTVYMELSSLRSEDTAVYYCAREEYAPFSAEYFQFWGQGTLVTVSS VL: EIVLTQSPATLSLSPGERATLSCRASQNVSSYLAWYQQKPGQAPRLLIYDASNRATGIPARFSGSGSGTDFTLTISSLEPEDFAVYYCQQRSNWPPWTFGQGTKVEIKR
ECL signal: 363
--
BINDER: Fab VH1-46_IGHD6-6*01_IGHJ1*01 S102A/S103P/S104F/H111F (APFF) & L6_IGKJ1*01 S30C (Fab, V domains shown, Fab; VH cloned into Plasmid A (CH1, His6 and Flag tags) and VL into Plasmid C (kappa CL); also called APFF / S30C) VH: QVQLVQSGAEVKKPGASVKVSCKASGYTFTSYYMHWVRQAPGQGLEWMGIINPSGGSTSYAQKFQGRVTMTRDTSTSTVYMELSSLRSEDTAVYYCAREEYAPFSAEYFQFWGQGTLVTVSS VL: EIVLTQSPATLSLSPGERATLSCRASQSVCSYLAWYQQKPGQAPRLLIYDASNRATGIPARFSGSGSGTDFTLTISSLEPEDFAVYYCQQRSNWPPWTFGQGTKVEIKR
ECL signal: 1010
--
BINDER: Fab VH1-46_IGHD6-6*01_IGHJ1*01 S102A/S103P/S104F/H111F (APFF) & L6_IGKJ1*01 S28W (Fab, V domains shown, Fab; VH cloned into Plasmid A (CH1, His6 and Flag tags) and VL into Plasmid C (kappa CL); also called APFF / S28W) VH: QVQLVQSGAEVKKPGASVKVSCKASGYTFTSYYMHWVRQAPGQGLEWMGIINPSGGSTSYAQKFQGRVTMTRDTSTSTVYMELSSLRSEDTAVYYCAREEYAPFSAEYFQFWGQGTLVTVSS VL: EIVLTQSPATLSLSPGERATLSCRASQWVSSYLAWYQQKPGQAPRLLIYDASNRATGIPARFSGSGSGTDFTLTISSLEPEDFAVYYCQQRSNWPPWTFGQGTKVEIKR
ECL signal: 316
--
BINDER: Fab VH1-46_IGHD6-6*01_IGHJ1*01 S102A/S103P/S104F/H111F (APFF) & L6_IGKJ1*01 S28E (Fab, V domains shown, Fab; VH cloned into Plasmid A (CH1, His6 and Flag tags) and VL into Plasmid C (kappa CL); also called APFF / S28E) VH: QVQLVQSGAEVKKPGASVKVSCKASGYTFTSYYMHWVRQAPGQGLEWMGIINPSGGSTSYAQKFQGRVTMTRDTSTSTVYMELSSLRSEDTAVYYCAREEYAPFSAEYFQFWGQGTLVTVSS VL: EIVLTQSPATLSLSPGERATLSCRASQEVSSYLAWYQQKPGQAPRLLIYDASNRATGIPARFSGSGSGTDFTLTISSLEPEDFAVYYCQQRSNWPPWTFGQGTKVEIKR
ECL signal: 389

QUERY: Given the binder Fab VH1-46_IGHD6-6*01_IGHJ1*01 S102A/S103P/S104F/H111F (APFF) & L6_IGKJ1*01 S28H (Fab, V domains shown, Fab; VH cloned into Plasmid A (CH1, His6 and Flag tags) and VL into Plasmid C (kappa CL); also called APFF / S28H) VH: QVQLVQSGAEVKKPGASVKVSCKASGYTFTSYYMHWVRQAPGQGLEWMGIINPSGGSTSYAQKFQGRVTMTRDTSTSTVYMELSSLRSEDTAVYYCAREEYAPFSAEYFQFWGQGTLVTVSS VL: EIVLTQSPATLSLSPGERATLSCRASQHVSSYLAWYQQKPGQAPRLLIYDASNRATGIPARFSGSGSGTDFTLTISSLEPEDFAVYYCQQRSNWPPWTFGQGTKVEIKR , what is its reported ECL signal?
RESULT: 381

QUERY: Fill in the blank: the reported ECL signal of Fab VH1-46_IGHD6-6*01_IGHJ1*01 S102A/S103P/S104F/H111F (APFF) & L6_IGKJ1*01 S28I (Fab, V domains shown, Fab; VH cloned into Plasmid A (CH1, His6 and Flag tags) and VL into Plasmid C (kappa CL); also called APFF / S28I) VH: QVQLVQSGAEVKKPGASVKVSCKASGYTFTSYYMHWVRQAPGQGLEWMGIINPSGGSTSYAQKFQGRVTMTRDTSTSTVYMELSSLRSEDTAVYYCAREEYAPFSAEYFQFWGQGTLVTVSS VL: EIVLTQSPATLSLSPGERATLSCRASQIVSSYLAWYQQKPGQAPRLLIYDASNRATGIPARFSGSGSGTDFTLTISSLEPEDFAVYYCQQRSNWPPWTFGQGTKVEIKR is ____.
RESULT: 265

QUERY: Name the reported ECL signal value associated with the binder Fab VH1-46_IGHD6-6*01_IGHJ1*01 S102A/S103P/S104F/H111F (APFF) & L6_IGKJ1*01 S28M (Fab, V domains shown, Fab; VH cloned into Plasmid A (CH1, His6 and Flag tags) and VL into Plasmid C (kappa CL); also called APFF / S28M) VH: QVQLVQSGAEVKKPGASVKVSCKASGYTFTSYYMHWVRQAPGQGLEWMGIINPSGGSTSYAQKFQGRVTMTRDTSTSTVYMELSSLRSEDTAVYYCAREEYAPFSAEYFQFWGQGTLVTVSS VL: EIVLTQSPATLSLSPGERATLSCRASQMVSSYLAWYQQKPGQAPRLLIYDASNRATGIPARFSGSGSGTDFTLTISSLEPEDFAVYYCQQRSNWPPWTFGQGTKVEIKR
RESULT: 271

QUERY: Can you look up the measured ECL signal of Fab VH1-46_IGHD6-6*01_IGHJ1*01 S102A/S103P/S104F/H111F (APFF) & L6_IGKJ1*01 S30D (Fab, V domains shown, Fab; VH cloned into Plasmid A (CH1, His6 and Flag tags) and VL into Plasmid C (kappa CL); also called APFF / S30D) VH: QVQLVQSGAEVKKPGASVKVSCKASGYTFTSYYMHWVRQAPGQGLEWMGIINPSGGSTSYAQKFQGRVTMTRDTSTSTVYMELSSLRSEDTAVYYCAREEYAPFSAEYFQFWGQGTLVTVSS VL: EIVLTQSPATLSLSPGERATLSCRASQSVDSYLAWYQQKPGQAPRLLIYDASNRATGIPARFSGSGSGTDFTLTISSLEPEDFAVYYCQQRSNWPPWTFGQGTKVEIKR for me?
RESULT: 284
